Test system: HSC-3
Experiment: cells
Format: functional, cell-based, Homo sapiens
Conditions: hsc-3
Description: SANGER: Inhibition of human HSC-3 cell growth in a cell viability assay.
pIC50: −log10 of the molar value.
measured_property: pIC50

In [3]: df
Out[3]:
    sequence  experimental_system  measured_property  quantitative_result
0  BLEOMYCIN                HSC-3              pIC50                 6.16

###

Each entry below carries its reported pIC50.
Tested on: 786-0
Assay: cells
Type: functional, cell-based, Homo sapiens
Settings: Homo sapiens
Description: SANGER: Inhibition of human 786-0 cell growth in a cell viability assay.
pIC50: −log10 of the molar value.
measured_property: pIC50

                                   compound  experimental_system  result
0        Oc1ccc2ccccc2c1SSc1c(O)ccc2ccccc12                786-0    5.48
1                         CN(C)C(=N)NC(=N)N                786-0  < 1.70
2  CS(=O)(=O)c1ccc(C(=O)Nc2ccc(Cl)c(-c3ccccn3)c2)c(Cl)c1                786-0  < 5.00
3  Nc1cccc2c1CN(C1CCC(=O)NC1=O)C2=O (centres undefined) [LENALIDOMIDE]                786-0  < 5.30

###

Tested on: RPMI-8866
Assay: cells
Type: functional, cell-based, Homo sapiens
Conditions: Homo sapiens, RPMI-8866
Description: SANGER: Inhibition of human RPMI-8866 cell growth in a cell viability assay.
pIC50: −log10 of the molar value.
Each entry below carries its reported pIC50.

compound	pIC50
CC(C)CCN1c2nc(Nc3cc(F)c(O)c(F)c3)ncc2N(C)C(=O)C1C (stereo not drawn)	< 5.30
OCCCNc1cc(-c2ccnc(Nc3cccc(Cl)c3)n2)ccn1	7.13
CCC/C=C/C=C/C(=O)O[C@H]1/C(=C/C(=O)OC)C[C@H]2C[C@H]([C@@H](C)O)OC(=O)C[C@H](O)C[C@@H]3C[C@H](OC(C)=O)C(C)(C)[C@](O)(C[C@@H]4C/C(=C/C(=O)OC)C[C@H](/C=C/C(C)(C)[C@]1(O)O2)O4)O3 [BRYOSTATIN 1]	< 8.10

###

Test system: SK-OV-3;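 further: growth inhibition of SK-OV-3 human cells, read out with a cell viability assay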
Assay: cells
Type: functional, cell-based, Homo sapiens
Conditions: Homo sapiens, SK-OV-3
Description: SANGER: Inhibition of human SK-OV-3 cell growth in a cell viability assay.
pIC50: −log10 of the molar value.
Each entry below carries its reported pIC50.

structure_as_smiles	pIC50
O=C(O)c1ccc(-c2c[nH]c3ncc(-c4ccccc4)cc23)cc1C1CCCC1	< 4.80
COc1cccc2c1C(=O)c1c(O)c3c(c(O)c1C2=O)C[C@@](O)(C(=O)CO)C[C@@H]3O[C@H]1C[C@H](N)[C@H](O)[C@H](C)O1	7.30
CC1(C)CNc2cc(NC(=O)c3cccnc3NCc3ccncc3)ccc21	< 5.70
CCC/C=C/C=C/C(=O)O[C@H]1/C(=C/C(=O)OC)C[C@H]2C[C@H]([C@@H](C)O)OC(=O)C[C@H](O)C[C@@H]3C[C@H](OC(C)=O)C(C)(C)[C@](O)(C[C@@H]4C/C(=C/C(=O)OC)C[C@H](/C=C/C(C)(C)[C@]1(O)O2)O4)O3	< 8.10
Cn1cnc2c(F)c(Nc3ccc(Br)cc3Cl)c(C(=O)NOCCO)cc21	< 5.40
Oc1ccc2ccccc2c1SSc1c(O)ccc2ccccc12	< 4.49

###

Tested on: C32;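 further: cell viability assay, with IC50 reflecting inhibition of C32 cell growth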
Experiment: cells
Type: functional, cell-based, Homo sapiens
Details: c32
Description: SANGER: Inhibition of human C32 cell growth in a cell viability assay.
measured_property: IC50 (µM)

    sequence  measured_property  value_units  quantitative_result
0  CISPLATIN               IC50           µM                 6.38

###

Each entry below carries its reported pIC50.
Test system: U-87 MG;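 further: growth inhibition of the cells measured with a viability assay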
Test: cells
Type: functional, cell-based, Homo sapiens, U-87MG ATCC
Details: Homo sapiens, U-87 MG
Description: SANGER: Inhibition of human U-87-MG cell growth in a cell viability assay.
pIC50: −log10 of the molar value.
measured_property: pIC50

                                   compound  experimental_system  result
0  CS(=O)(=O)c1ccc(C(=O)Nc2ccc(Cl)c(-c3ccccn3)c2)c(Cl)c1              U-87 MG  < 5.00
1  CCN(CC)CCCCNc1ncc2cc(-c3cc(OC)cc(OC)c3)c(NC(=O)NC(C)(C)C)nc2n1              U-87 MG  < 5.70
2  N[C@@H](CSC(c1ccccc1)(c1ccccc1)c1ccccc1)C(=O)O              U-87 MG  < 5.29
3  COc1cc2ncn(-c3cc(OCc4ccccc4S(C)(=O)=O)c(C#N)s3)c2cc1OC [GSK-319347A]              U-87 MG  < 5.30
4  CCN(CC)CCNC(=O)c1c(C)[nH]c(/C=C2\C(=O)Nc3ccc(F)cc32)c1C              U-87 MG  < 5.10
5   OCCCNc1cc(-c2ccnc(Nc3cccc(Cl)c3)n2)ccn1              U-87 MG  < 6.59
6  O=C(O)c1ccc(-c2c[nH]c3ncc(-c4ccccc4)cc23)cc1C1CCCC1              U-87 MG  < 4.80
7  COc1cccc2c1C(=O)c1c(O)c3c(c(O)c1C2=O)C[C@@](O)(C(=O)CO)C[C@@H]3O[C@H]1C[C@H](N)[C@H](O)[C@H](C)O1              U-87 MG    6.46
8  COc1cc(N2CCN(C)CC2)ccc1Nc1ncc2c(n1)N(C)c1ccccc1C(=O)N2C              U-87 MG  < 5.10

###

Each entry below carries its reported IC50.
Test system: MC-IXC
Assay: cells
Type: functional, cell-based, Homo sapiens
Settings: Homo sapiens, MC-IXC
Description: SANGER: Inhibition of human MC-IXC cell growth in a cell viability assay.
measured_property: IC50

>>> print(df.to_string())
                                   compound     result
0  CC(C)CCN1c2nc(Nc3cc(F)c(O)c(F)c3)ncc2N(C)C(=O)C1C (stereo not drawn)   0.796 µM
1  Nc1cccc2c1CN(C1CCC(=O)NC1=O)C2=O (stereo not drawn) [LENALIDOMIDE]     > 5 µM
2  COc1cc2c(Nc3ccc(NC(=O)c4ccccc4)cc3)ncnc2cc1OCCCN1CCOCC1     > 4 µM
3  Cc1cc([N+](=O)[O-])ccc1NS(=O)(=O)c1cc(Cl)ccc1Cl    2.51 µM
4  N#Cc1c(O)c2c(-c3ccc(-c4ccccc4O)cc3)csc2[nH]c1=O  > 1.02 µM
5  CS(=O)(=O)c1ccc(C(=O)Nc2ccc(Cl)c(-c3ccccn3)c2)c(Cl)c1    > 10 µM
6  Cn1cnc2c(F)c(Nc3ccc(Br)cc3Cl)c(C(=O)NOCCO)cc21     > 4 µM
7  O=C(O)c1ccc(-c2c[nH]c3ncc(-c4ccccc4)cc23)cc1C1CCCC1    > 16 µM

###

System: DJM-1;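 further: growth inhibition of human DJM-1 cells, read out by a cell viability assay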
Assay: cells
Format: functional, cell-based, Homo sapiens
Conditions: Homo sapiens, DJM-1
Description: SANGER: Inhibition of human DJM-1 cell growth in a cell viability assay.
Each entry below carries its reported IC50.
measured_property: IC50

In [3]: df
Out[3]:
                                   compound  experimental_system  result
0  CCN(CC)CCCCNc1ncc2cc(-c3cc(OC)cc(OC)c3)c(NC(=O)NC(C)(C)C)nc2n1                DJM-1  > 2 µM
1  C=C(c1ccc(C(=O)O)cc1)c1cc2c(cc1C)C(C)(C)CCC2(C)C                DJM-1  > 8 µM
2  Nc1cccc2c1CN(C1CCC(=O)NC1=O)C2=O (stereo not given) [LENALIDOMIDE]                DJM-1  > 5 µM
3  Cn1cnc2c(F)c(Nc3ccc(Br)cc3Cl)c(C(=O)NOCCO)cc21                DJM-1  > 4 µM
4  Cc1cn(-c2cc(NC(=O)c3ccc(C)c(Nc4nccc(-c5cccnc5)n4)c3)cc(C(F)(F)F)c2)cn1                DJM-1  > 2 µM

###

Tested on: SNU-449
Assay: cells
Type: functional, cell-based, Homo sapiens
Settings: snu-449
Description: SANGER: Inhibition of human SNU-449 cell growth in a cell viability assay.
pIC50: −log10 of the molar value.
measured_property: pIC50

In [3]: df
Out[3]:
    sequence  quantitative_result
0  BLEOMYCIN                 6.41

###

Test system: NCI-H187;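 further: growth inhibition of NCI-H187 cells, read out as cell viability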
Test: cells
Type: functional, cell-based, Homo sapiens
Settings: Homo sapiens, NCI-H187
Description: SANGER: Inhibition of human NCI-H187 cell growth in a cell viability assay.
pIC50: −log10 of the molar value.
Each entry below carries its reported pIC50.
measured_property: pIC50

>>> print(df.to_string())
                        structure_as_smiles  measured_property  result
0  O=C(O)c1ccc(-c2c[nH]c3ncc(-c4ccccc4)cc23)cc1C1CCCC1              pIC50  < 4.80
1  Nc1ccn([C@@H]2O[C@H](CO)[C@@H](O)C2(F)F)c(=O)n1              pIC50  < 5.99
2  CC[C@H](CO)Nc1nc(NCc2ccccc2)c2ncn(C(C)C)c2n1              pIC50  < 4.80
3   OCCCNc1cc(-c2ccnc(Nc3cccc(Cl)c3)n2)ccn1              pIC50  < 6.59
4  CCN(CC)CCNC(=O)c1c(C)[nH]c(/C=C2\C(=O)Nc3ccc(F)cc32)c1C              pIC50  < 5.10

Cited source: ChEMBL document CHEMBL1201861
